Test: qHTS of pediatric cancer cell lines to identify multiple opportunities for drug repurposing: Primary screen for A673 cells (AID 1347092); also: nearly all actives have a fitted effect of over 45% in size
Conditions: A673 Ewing sarcoma viability, CellTiter-Glo ATP luminescence, 48 h; series mostly up to 46 µM
Results filed as inconclusive are left out. Calls of active or inactive are those of the source. Calls follow the shape of the dose curve; as a rule, active = well fitted cell-killing curve with a large enough effect; inconclusive = small, poorly fitted or top-dose-only effect; inactive = no such curve, though single readings can be large or run the other way.
Answer with one of the outcomes given here: YES for active, NO for inactive

Worked examples follow.
compound="CCOC(=O)[C@H](CCc1ccccc1)N[C@@H](C)C(=O)N1CCCC1C(=O)O (stereo partly drawn)" assigned_category=YES
compound="CNC1CCC(N(Cc2cccc(-c3ccncc3)c2)C(=O)c2sc3ccccc3c2Cl)CC1 (stereo not drawn)" assigned_category=YES
compound="OC(c1cc(C(F)(F)F)nc2c(C(F)(F)F)cccc12)C1CCCCN1 (stereo not drawn)" assigned_category=YES
compound=Cc1cc(CS(=O)(=O)c2ccccc2)cc(OCc2ccc(CN3CCC[C@H]3CO)cc2)c1 assigned_category=YES
compound="CCCCCOC(=O)Nc1nc(=O)n([C@@H]2O[C@H](C)[C@@H](O)C2O)cc1F (stereo partly drawn)" assigned_category=NO
compound=CCc1cc(-c2n[nH]c(C)c2-c2ccc3c(c2)OCCO3)c(O)cc1O assigned_category=YES
compound=NC[C@H]1O[C@H](O[C@@H]2[C@@H](O)[C@@H](O[C@H]3O[C@H](CO)[C@@H](O)[C@H](N)[C@@H]3O)[C@H](N)C[C@@H]2N)[C@H](O)[C@@H](O)[C@H]1O assigned_category=NO

Below: the item to evaluate.
Hi team, can someone confirm the assay call for `O=C(O)C1=CO[C@@H](O[C@@H]2O[C@H](CO)[C@H](O)[C@H](O)[C@H]2O)[C@@H]2C(CO)=CC[C@H]12` ?
NO
